- EXPERIMENT: NCI Yeast Anticancer Drug Screen. Data for the sgs1 mgt1 strain (AID 161);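 note: 0% = growth of cultures given vehicle only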
- STUDY_CONDITIONS: S. cerevisiae sgs1 mgt1 strain, at 50.0 µM, hits give high values
The panel holds about 79,000 compounds, 15% with a hit somewhere; the sample as a whole holds those more often. Calls of active or inactive are those of the source. Cut-off read from the data, not from the text of the source: active = growth inhibition above about 70%; inactive = the rest.
QUANTITY: growth inhibition

Query: growth inhibition; subject: CC(CC(=O)O)(CC(=O)O)c1ccccc1 -11.2% (inactive)

Query: growth inhibition; subject: Cc1nc(C(N)=O)c(=O)[nH]c1C 8% (inactive)

Query: growth inhibition; subject: O=C1CSC(c2cccc(C(F)(F)F)c2)N1c1nncs1 (configuration not stated) 19.6% (inactive)

Query: growth inhibition; subject: NC1CCC(P(=O)(O)O)CC1 (configuration not stated) -4.75% (inactive)

Query: growth inhibition; subject: NS(=O)(=O)c1ccc(NC2(C(=O)O)CCCC2)cc1 -0.9% (inactive)

Query: growth inhibition; subject: O=C(O)C(CCS)(c1ccccc1)c1ccccc1 0.3% (inactive)

Query: growth inhibition; subject: CC(=O)NC(CSC1=C2NC(=O)\C=C/C=C/C=C\C(C)C(O)CC(=O)/C(C)=C\CC(O)/C=C/C(C)C(O)C(C)C=C(C)C(=O)c3c(O)c(C)cc(c3C1=O)C2=O)C(=O)O (configuration not stated) 36.6% (inactive)

Query: growth inhibition; subject: CCC(CC)NCCCNc1cc(OC)cc2cccnc12 53.8% (inactive)
